- assay_procedure: Ratio of drug concentration in brain to blood of Sprague-Dawley rat at 25 mg/kg, po administered via gavage incubated for 0.5 hrs by LC/MS-MS analysis
- Type: ADME, organism-based
- applied_conditions: brain and blood, read-out: BBR
reported_property: Kp at 0.5 h

INSERT INTO results (chemical_smiles, reading) VALUES
  ('Cc1c(C#Cc2cnc3cnc(-c4ccc(N)cc4)cn23)cccc1C(=O)Nc1cc(CN2CCN(C)CC2)cc(C(C)C)c1', 6.4);

* * *

Reported IC50 values for a set of molecules
- measurement_target: High affinity nerve growth factor receptor (Homo sapiens, UniProt P04629)
- Sequence (P04629 whole entry, the tested form may be a part): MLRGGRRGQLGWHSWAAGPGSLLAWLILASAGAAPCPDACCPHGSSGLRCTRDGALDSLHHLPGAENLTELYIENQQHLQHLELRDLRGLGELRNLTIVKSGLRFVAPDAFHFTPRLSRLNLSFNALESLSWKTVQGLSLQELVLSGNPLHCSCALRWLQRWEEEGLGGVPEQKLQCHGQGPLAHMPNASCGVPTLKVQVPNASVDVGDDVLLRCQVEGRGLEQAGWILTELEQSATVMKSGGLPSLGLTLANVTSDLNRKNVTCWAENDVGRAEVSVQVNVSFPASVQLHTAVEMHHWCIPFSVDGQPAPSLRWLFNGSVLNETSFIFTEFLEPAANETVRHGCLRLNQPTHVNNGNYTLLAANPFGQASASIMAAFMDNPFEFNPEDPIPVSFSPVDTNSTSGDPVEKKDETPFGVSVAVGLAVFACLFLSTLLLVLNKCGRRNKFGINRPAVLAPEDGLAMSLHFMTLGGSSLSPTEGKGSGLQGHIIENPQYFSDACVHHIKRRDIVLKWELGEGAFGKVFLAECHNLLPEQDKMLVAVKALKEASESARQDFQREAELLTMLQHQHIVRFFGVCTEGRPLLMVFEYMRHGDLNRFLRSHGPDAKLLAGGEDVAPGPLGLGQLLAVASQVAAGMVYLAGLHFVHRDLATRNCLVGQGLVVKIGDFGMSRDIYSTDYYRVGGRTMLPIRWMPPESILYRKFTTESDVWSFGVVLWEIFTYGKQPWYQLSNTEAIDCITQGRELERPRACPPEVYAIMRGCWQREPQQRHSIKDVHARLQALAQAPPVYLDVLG
- assay_procedure: Inhibition of recombinant human His-tagged TrkA catalytic domain (441 to 796 residues) expressed in baculovirus expression system using tyr 01 as substrate incubated for 1 hr by Z'-Lyte assay
reported_property: IC50 (nM)

INSERT INTO measurements (chemical_smiles, reported_property, reading) VALUES
  ('Cc1ccc(C(=O)Nc2cc(CN3CCN(C)CC3)cc(C(F)(F)F)c2)cc1C#Cc1cnc2cnccn12', 'IC50', 8.24),
  ('Cc1c(C#Cc2cnc3cnc(-c4ccc(N)cc4)cn23)cccc1C(=O)Nc1cc(CN2CCN(C)CC2)cc(C(C)(C)C)c1', 'IC50', 6.4),
  ('Cc1c(C#Cc2cnc3cnc(-c4ccc(N)cc4)cn23)cccc1C(=O)Nc1cc(CN2CCN(C)CC2)cc(-c2ccccc2)c1', 'IC50', 7.34),
  ('Cc1c(C#Cc2cnc3cnc(-c4ccc(N)cc4)cn23)cccc1C(=O)Nc1cc(CN2CCN(C)CC2)cc(C(F)(F)F)c1', 'IC50', 7.75);

Ref: ChEMBL document CHEMBL4351015
